- studySystem: Na^+ /H^+ exchanger of rabbit erythrocytes (Oryctolagus cuniculus)
- Construct: endogenous in cells; host or cells: erythrocytes in whole blood of cholesterol-fed White New Zealand rabbits (Ivanovas)
- Sequence (P23791 whole entry): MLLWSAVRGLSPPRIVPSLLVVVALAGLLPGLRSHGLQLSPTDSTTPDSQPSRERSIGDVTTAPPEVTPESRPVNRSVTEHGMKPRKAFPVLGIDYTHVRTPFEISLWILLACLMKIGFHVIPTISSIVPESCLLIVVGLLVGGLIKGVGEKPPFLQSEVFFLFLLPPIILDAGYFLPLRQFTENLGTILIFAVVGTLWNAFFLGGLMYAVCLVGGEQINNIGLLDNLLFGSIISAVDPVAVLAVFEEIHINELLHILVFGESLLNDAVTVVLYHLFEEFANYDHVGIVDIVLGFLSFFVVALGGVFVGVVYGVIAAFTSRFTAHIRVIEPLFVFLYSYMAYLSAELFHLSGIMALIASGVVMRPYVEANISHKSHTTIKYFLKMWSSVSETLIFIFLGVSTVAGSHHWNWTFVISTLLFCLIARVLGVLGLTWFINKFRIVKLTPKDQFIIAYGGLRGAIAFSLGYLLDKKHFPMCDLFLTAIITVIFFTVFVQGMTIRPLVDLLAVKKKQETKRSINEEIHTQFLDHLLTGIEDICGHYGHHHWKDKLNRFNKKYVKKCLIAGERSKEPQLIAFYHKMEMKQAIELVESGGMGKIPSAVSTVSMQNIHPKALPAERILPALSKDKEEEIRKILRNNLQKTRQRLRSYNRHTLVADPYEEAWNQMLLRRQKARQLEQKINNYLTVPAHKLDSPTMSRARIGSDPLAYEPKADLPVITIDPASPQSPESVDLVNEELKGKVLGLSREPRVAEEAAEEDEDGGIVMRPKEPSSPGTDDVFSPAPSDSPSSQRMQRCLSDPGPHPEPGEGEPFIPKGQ
- test: Inhibition of the Na+/H+ exchanger of rabbit erythrocytes (amiloride-sensitive sodium influx, flame photometry)
- Assay type: cell-based, rabbit (White New Zealand)
- settings: hyperosmolar salt/sucrose medium, pH 7.4, 37° C.
Structures can show the parent of a compound that is named as a salt.
experimentalEndpoint: IC50 (nM)

P: CS(=O)(=O)Nc1cc(C(=O)N=C(N)N)ccc1Oc1cccnc1
Q: CC(C)c1ccc(C(=O)N=C(N)N)cc1NS(C)(=O)=O [Example 1, hydrochloride]
Task: Kindly identify the item with the lower IC50 figure among these two: P and Q Identify your selection by its label.
Output: Q
